# measurement notes: Stability in pH 6.8 buffer assessed as compound remaining level at 37 degC by HPLC analysis
# Type: physicochemical
// reported Stability per item
property: Stability (%)

# structure, readout unit, experimental result
measured = [
    ("Cc1cc(Nc2nn(C3CC3)c3cnc(S(=O)(=O)N4CCC(OC(=O)CN)CC4)cc23)ccc1F.O=C(O)C(F)(F)F", "%", 67.6),
    ("Cc1cc(Nc2nn(C3CC3)c3cnc(S(=O)(=O)N4CCC(OC(=O)[C@H](C)N)CC4)cc23)ccc1F.O=C(O)C(F)(F)F", "%", 80.2),
]

###

# measurement notes: Cytotoxicity in human HepAD38 cells assessed as induction of cell killing
# Type: cell-based

# structure, readout relation, CC50 [µM]
measured = [
    ("Cc1cc(Nc2nn(CCF)c3ccc(S(=O)(=O)N4CCOCC4)cc23)ccc1F", ">", 100),
    ("Cc1cc(Nc2nn(C3CC3)c3ccc(S(=O)(=O)N4CCC(O)CC4)cc23)ccc1F", "=", 11),
    ("O=S(=O)(c1ccc2c(c1)c(Nc1ccc(F)cc1)nn2C1CCC1)N1CCC(O)CC1", "=", 10.8),
    ("O=S(=O)(c1cc2c(Nc3ccc(F)c(F)c3)nn(C3CC3)c2cn1)N1CCOCC1", ">", 100),
    ("O=S(=O)(c1ccc2c(c1)c(Nc1ccc(F)c(C3CC3)c1)nn2C1CC1)N1CCC(O)CC1", "=", 5.86),
]
